Catalogue of Relative KD values
- Study target: T1, human PVR (SPR of the humanized variants, Example 5) (human, UniProt P15151 21-343)
- T1 sequence: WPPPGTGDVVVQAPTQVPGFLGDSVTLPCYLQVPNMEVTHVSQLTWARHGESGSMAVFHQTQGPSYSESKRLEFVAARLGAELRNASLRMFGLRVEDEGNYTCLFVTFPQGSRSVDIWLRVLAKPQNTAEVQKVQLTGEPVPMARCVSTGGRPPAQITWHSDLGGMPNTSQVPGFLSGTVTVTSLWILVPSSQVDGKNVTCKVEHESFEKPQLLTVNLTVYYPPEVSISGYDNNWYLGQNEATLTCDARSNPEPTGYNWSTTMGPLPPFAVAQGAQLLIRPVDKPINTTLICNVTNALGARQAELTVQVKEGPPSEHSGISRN
- Experimental protocol: SPR; relative to N56E VH0/Vκ0

>  <Binder>
humanized 5B9 variant VH5/VK3 (antibody, V domains shown) VH: QVQLVQSGAEVKKPGASVKVSCKATGYTFSNYWIEWVRQAPGQGLEWMGEIFPGSGRINFNEKFKGRVTFTADTSISTAYMELSRLRSDDTAVYYCARTKIYGNSFDYWGQGTLVTVSS VL: DIQMTQSPSSLSASVGDRVTITCRASQDVGTAVVWYQQKPGKAPKLLIYWASSRHEGVPSRFSGSGSGTDFTLTISSLQPEDFATYFCQQYSRYPLTFGQGTKLEIK

>  <Relative KD>
1.34

$$$$
>  <Binder>
humanized 5B9 variant VH2/VK3 (antibody, V domains shown) VH: QVQLVQSGAEVKKPGASVKISCKATGYTFSNYWIEWIKQAPGQGLEWIGEIFPGSGRINFNEKFKGRATFTADTSIDTTYMELSRLRSDDTAVYYCARTKIYGNSFDYWGQGTLVTVSS VL: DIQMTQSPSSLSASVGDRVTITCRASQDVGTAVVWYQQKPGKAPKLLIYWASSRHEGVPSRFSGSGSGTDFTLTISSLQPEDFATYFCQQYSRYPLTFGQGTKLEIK

>  <Relative KD>
0.93

$$$$
>  <Binder>
humanized 5B9 variant VH2/VK2 (antibody, V domains shown) VH: QVQLVQSGAEVKKPGASVKISCKATGYTFSNYWIEWIKQAPGQGLEWIGEIFPGSGRINFNEKFKGRATFTADTSIDTTYMELSRLRSDDTAVYYCARTKIYGNSFDYWGQGTLVTVSS VL: DIQMTQSPSSLSASVGDRVTITCKASQDVGTAVVWYQQKPGKAPKLLIYWASSRHEGVPDRFSGSGSGTDFTLTISSLQPEDFADYFCQQYSRYPLTFGQGTKLEIK

>  <Relative KD>
0.84

$$$$

Reference for the values: patent US20260152568A1
